Measured Activity accompanies every entry in the list below.
# study_system: Maternal embryonic leucine zipper kinase (Homo sapiens)
# assay_comment: Inhibition of MELK (unknown origin) assessed as residual enzyme activity at 10 uM
Form entry: value (%) — number only.

Solved cases (3 shown):
Name the reported Activity value associated with the compound `CO[C@H]1CC[C@H](NC(=O)c2n[nH]cc2NC(=O)c2ccc(-c3ccccc3)o2)CC1`
13

Same thing, different compound: `COc1cccc(OC)c1C(=O)Nc1c[nH]nc1C(=O)NCc1ccccc1`
96

Same thing, different compound: `COc1cccc(OC)c1C(=O)Nc1c[nH]nc1C(=O)N[C@H]1CC[C@H](OC)CC1`
100

Now consider a different compound.
Name the reported Activity value associated with the compound `CO[C@H]1CC[C@H](NC(=O)c2n[nH]cc2NC(=O)c2ccccc2)CC1`
32
